- assayed-target: P-gp (ABCB1) ATPase (Homo sapiens)
- Sequence (P08183 whole entry): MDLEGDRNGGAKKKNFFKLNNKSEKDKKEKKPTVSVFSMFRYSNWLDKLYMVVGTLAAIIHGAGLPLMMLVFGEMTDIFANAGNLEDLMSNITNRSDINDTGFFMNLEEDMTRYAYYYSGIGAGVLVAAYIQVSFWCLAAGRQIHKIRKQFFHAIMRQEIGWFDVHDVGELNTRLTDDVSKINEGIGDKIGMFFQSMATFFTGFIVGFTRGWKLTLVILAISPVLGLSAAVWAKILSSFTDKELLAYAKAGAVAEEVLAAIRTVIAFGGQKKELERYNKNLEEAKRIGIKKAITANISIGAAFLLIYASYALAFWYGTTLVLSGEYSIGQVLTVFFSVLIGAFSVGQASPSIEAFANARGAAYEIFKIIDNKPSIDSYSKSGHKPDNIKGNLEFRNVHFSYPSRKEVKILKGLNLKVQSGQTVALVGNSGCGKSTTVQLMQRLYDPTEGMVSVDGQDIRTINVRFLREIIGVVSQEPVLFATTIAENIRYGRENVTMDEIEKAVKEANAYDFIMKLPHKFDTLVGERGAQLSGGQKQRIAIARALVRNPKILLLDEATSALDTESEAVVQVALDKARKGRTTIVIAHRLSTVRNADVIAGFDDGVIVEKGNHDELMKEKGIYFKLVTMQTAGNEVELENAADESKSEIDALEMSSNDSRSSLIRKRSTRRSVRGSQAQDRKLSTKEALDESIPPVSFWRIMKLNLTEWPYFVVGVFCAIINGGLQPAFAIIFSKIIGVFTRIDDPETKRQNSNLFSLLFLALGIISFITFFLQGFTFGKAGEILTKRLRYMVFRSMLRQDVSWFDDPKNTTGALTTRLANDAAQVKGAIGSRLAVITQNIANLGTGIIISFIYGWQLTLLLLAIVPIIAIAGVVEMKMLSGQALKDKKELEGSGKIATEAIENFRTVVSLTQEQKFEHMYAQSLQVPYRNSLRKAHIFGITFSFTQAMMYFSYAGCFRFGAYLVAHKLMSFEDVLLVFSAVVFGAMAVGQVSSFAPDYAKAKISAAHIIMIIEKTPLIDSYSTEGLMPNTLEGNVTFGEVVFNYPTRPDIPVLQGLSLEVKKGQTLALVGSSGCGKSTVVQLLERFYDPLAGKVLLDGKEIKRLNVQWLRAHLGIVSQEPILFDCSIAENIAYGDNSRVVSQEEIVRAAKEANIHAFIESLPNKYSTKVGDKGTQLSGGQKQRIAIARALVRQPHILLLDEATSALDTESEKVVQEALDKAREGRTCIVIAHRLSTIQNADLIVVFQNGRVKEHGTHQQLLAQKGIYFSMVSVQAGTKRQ
- experimental-protocol: Negative allosteric modulator activity at human P-gp ATP synthase hydrolytic activity assessed as inhibition of basal Pgp-ATPase activity incubated for 60 mins in presence of ATP by Glo-luminescence based microplate reader assay relative to DMSO
value-kind: inhibition at 1 h (%)
Please respond with the number in % and leave the unit unwritten.

Query :: // returns reported inhibition at 1 h for input CC(C)(O)[C@H]1CC[C@@](C)([C@H]2CC[C@]3(C)[C@@H]2[C@H](O)C[C@@H]2[C@@]4(C)CC[C@H](NC(=O)[C@@H]5CCCN5)C(C)(C)[C@@H]4CC[C@]23C)O1
Result :: 13

* * *

- assayed-target: P-gp (ABCB1) ATPase (Homo sapiens)
- experimental-protocol: Negative allosteric modulator activity at human P-gp ATP synthase hydrolytic activity assessed as inhibition of Vrp-stimulated Pgp-ATPase activity at 25 uM incubated for 60 mins in presence of ATP by Glo-luminescence based microplate reader assay relative to DMSO
- run-parameters: probe Vrp (stimulator of the ATPase activity)
value-kind: inhibition at 1 h, 25 µM (%)
Please respond with the number in % and leave the unit unwritten.

Query :: // returns reported inhibition at 1 h, 25 µM for input CC(C)(O)[C@H]1CC[C@@](C)([C@H]2CC[C@]3(C)[C@@H]2[C@H](O)C[C@@H]2[C@@]4(C)CC[C@H](NC(=O)[C@@H]5CCCN5)C(C)(C)[C@@H]4CC[C@]23C)O1
Result :: 60

* * *

- experimental-protocol: Drug accumulation in human KBV cells at 10 uM incubated for 4 hrs by LC-MS/MS analysis
- Format: ADME, cell-based
value-kind: Drug uptake

Query :: // returns reported Drug uptake for input CC(C)(C)OC(=O)N[C@@H](Cc1ccc(OC(C)(C)C)cc1)C(=O)N[C@H]1CC[C@]2(C)[C@H]3C[C@@H](O)[C@@H]4[C@@H]([C@]5(C)CC[C@@H](C(C)(C)O)O5)CC[C@@]4(C)[C@]3(C)CC[C@H]2C1(C)C
Result :: Not Active

Query :: // returns reported Drug uptake for input CC(C)(C)OC(=O)NCCCCCC(=O)N[C@H]1CC[C@]2(C)[C@H]3C[C@@H](O)[C@@H]4C([C@]5(C)CC[C@H](C(C)(C)O)O5)CC[C@@]4(C)[C@]3(C)CC[C@H]2C1(C)C (some centres undefined)
Result :: Not Active

Query :: // returns reported Drug uptake for input CC(C)(C)OC(=O)C[C@H](NC(=O)OC(C)(C)C)C(=O)N[C@H]1CC[C@]2(C)[C@H]3C[C@@H](O)[C@@H]4[C@@H]([C@]5(C)CC[C@@H](C(C)(C)O)O5)CC[C@@]4(C)[C@]3(C)CC[C@H]2C1(C)C
Result :: Not Active

* * *

- experimental-protocol: Drug accumulation in human KB cells at 10 uM incubated for 4 hrs by LC-MS/MS analysis
- Format: ADME, cell-based
value-kind: Drug uptake

Query :: // returns reported Drug uptake for input CC(C)(C)OC(=O)C[C@H](NC(=O)OC(C)(C)C)C(=O)N[C@H]1CC[C@]2(C)[C@H]3C[C@@H](O)[C@@H]4[C@@H]([C@]5(C)CC[C@@H](C(C)(C)O)O5)CC[C@@]4(C)[C@]3(C)CC[C@H]2C1(C)C
Result :: Not Active

Query :: // returns reported Drug uptake for input CC(C)(C)OC(=O)N[C@@H](Cc1ccc(OC(C)(C)C)cc1)C(=O)N[C@H]1CC[C@]2(C)[C@H]3C[C@@H](O)[C@@H]4[C@@H]([C@]5(C)CC[C@@H](C(C)(C)O)O5)CC[C@@]4(C)[C@]3(C)CC[C@H]2C1(C)C
Result :: Not Active

Query :: // returns reported Drug uptake for input CC(C)(C)OC(=O)NCCCCCC(=O)N[C@H]1CC[C@]2(C)[C@H]3C[C@@H](O)[C@@H]4C([C@]5(C)CC[C@H](C(C)(C)O)O5)CC[C@@]4(C)[C@]3(C)CC[C@H]2C1(C)C (some centres undefined)
Result :: Not Active

Origin of the recorded values: ChEMBL document CHEMBL5331114
